Please go through the items and note down their LC retention time.
Assay: Waters ACQUITY UPLC BEH C18, 100 × 2.1 mm, 1.7 µm, 40 °C, 0.3 to 0.4 mL/min, estimated dead time 0.63 min; A: water + 0.1% formic acid; B: methanol + 0.1% formic acid; gradient (min/%B) 0/0.5 0.1/0.5 10/80 10.1/99.5 12/99.5
Settings: stereoisomer not certain
Only the number, expressed in min, is required.

Looking up Nc1[nH]c(=O)[nH]c(=O)c1OC1OC(CO)C(OC2OC(CO)C(O)C(O)C2O)C(O)C1O (centres undefined) , I found its LC retention time recorded as 2

Looking up CC(C)=CCC=C(C)C1CCC2(C)C1C(O)CC1C3(C)CCC(OC4OC(CO)C(O)C(O)C4OC4OC(CO)C(O)C(O)C4O)C(C)(C)C3CCC12C (centres undefined) , I found its LC retention time recorded as 9.63

Looking up OCC1OC(Oc2cc3c(OC4OC(CO)C(O)C(O)C4O)cc(O)cc3[o+]c2-c2ccc(O)cc2)C(O)C(O)C1O (centres undefined) , I found its LC retention time recorded as 2.71

Looking up CCC=CCC=CCC=CCCCCCCCC(=O)OCC(O)COP(=O)([O-])OCC[N+](C)(C)C (centres undefined) , I found its LC retention time recorded as 8.93

Looking up CC1OC(OC2C(OC3CCC4(C)C(=CCC5C4CCC4(C)C5CC5OC6(CCC(COC(=O)CC(C)(O)CC(=O)O)CO6)C(C)C54)C3)OC(CO)C(O)C2O)C(O)C(O)C1O (centres undefined) , I found its LC retention time recorded as 7.38

Looking up COc1c(O)cc2oc(-c3ccc(O)c(O)c3)c(OC3OC(COC4OC(CO)C(O)C(O)C4O)C(O)C(O)C3O)c(=O)c2c1O (centres undefined) , I found its LC retention time recorded as 3.63

Looking up CC(C)=CCc1cc(C2CC(=O)c3c(O)cc(O)cc3O2)ccc1O (centres undefined) , I found its LC retention time recorded as 8.11

Looking up `CCCCc1ccc(C(=O)O)nc1` , I found its LC retention time recorded as 2.79

Looking up CC1(C(=O)O)CCC2(C)CCC3(C)C(=CC(=O)C4C5(C)CCC(OC6OC(C(=O)O)C(O)C(O)C6OC6OC(C(=O)O)C(O)C(O)C6O)C(C)(CO)C5CCC43C)C2C1 (centres undefined) , I found its LC retention time recorded as 6.36

Looking up CC(C)=CCCC(C)(OC1OC(CO)C(O)C(O)C1O)C1CCC2(C)C1C(O)CC1C3(C)CCC(O)C(C)(C)C3C(OC3OC(CO)C(O)C(O)C3O)CC12C (centres undefined) , I found its LC retention time recorded as 4.8

Looking up `Cc1c(N)c(=O)n(-c2ccccc2)n1C` , I found its LC retention time recorded as 2.76

Looking up COc1ccc(C2CC(=O)c3c(O)cc(OC4OC(CO)C(O)C(O)C4OC4OC(C)C(O)C(O)C4O)cc3O2)cc1O (centres undefined) , I found its LC retention time recorded as 4.59

Looking up O=S(=O)(O)ON=C(CC(O)c1ccccc1)SC1OC(CO)C(O)C(O)C1O (centres undefined) , I found its LC retention time recorded as 2.71

Looking up OCC1OC(Oc2ccc(O)cc2)C(O)C(O)C1O (centres undefined) , I found its LC retention time recorded as 1.88

Looking up CCCCCCCCCCCCC(O)C(O)C(COC1OC(CC(C(=O)O)C(=O)O)C(O)C(O)C1O)NC(C)=O (centres undefined) , I found its LC retention time recorded as 4.79

Looking up CCC1CC2CN3CCC4(O)C(=Nc5ccc(OC)cc54)C(C(=O)OC)(C2)C13 (centres undefined) , I found its LC retention time recorded as 4.01

Looking up O=c1cc(-c2ccc(O)cc2)oc2cc(O)c(C3OC(CO)C(O)C(O)C3O)c(O)c12 (centres undefined) , I found its LC retention time recorded as 3.95

Looking up CC(C)C(NC(=O)Cc1c[nH]c2ccccc12)C(=O)O (centres undefined) , I found its LC retention time recorded as 5.61

Looking up C=CC1C(OC2OC(CO)C(O)C(O)C2O)OC=C(C(=O)OC)C1CC1NC(C(=O)O)Cc2c1[nH]c1ccccc21 (centres undefined) , I found its LC retention time recorded as 4.13

Looking up `CC(O)(CC(=O)O)CC(=O)O` , I found its LC retention time recorded as 1.98

Looking up COc1cc(C=CC(=O)OC2C(OC3COC(c4c(O)cc5oc(-c6ccc(O)cc6)cc(=O)c5c4O)C(O)C3O)OC(CO)C(O)C2O)ccc1O (centres undefined) , I found its LC retention time recorded as 4.71

Looking up `CN(C)Cc1c[nH]c2ccccc12` , I found its LC retention time recorded as 3.06

Looking up CCC(C)C(N)C(=O)O (centres undefined) , I found its LC retention time recorded as 1.94

Looking up COc1ccc2cc1Oc1ccc(cc1)CC1=NCCc3cc(OC)c(cc31)Oc1c(OC)c(OC)c(OC)c3c1C(C2)N(C)CC3 (centres undefined) , I found its LC retention time recorded as 4.25

Looking up CC(CCC1(O)OC2CC3C4CC=C5CC(O)CC(OC6OCC(O)C(OC7OCC(O)C(O)C7O)C6OC6OC(C)C(O)C(O)C6O)C5(C)C4CCC3(C)C2C1C)COC1OC(CO)C(O)C(O)C1O (centres undefined) , I found its LC retention time recorded as 4.15

Looking up CC(C)=CCc1c(O)cc(O)c2c1OCC(c1ccc(O)cc1O)C2=O (centres undefined) , I found its LC retention time recorded as 7.04

Looking up O=C1c2c(O)cc(O)cc2OC(c2ccc(O)cc2)C1O (centres undefined) , I found its LC retention time recorded as 4.8

Looking up CCCCCC=CCC(O)C(O)CCCCCCCC(=O)O (centres undefined) , I found its LC retention time recorded as 8.54

Looking up CC1OC(OC2C(COC3OC(CO)C(O)C(O)C3O)OC(OC3CCC4(C)C(CCC5(C)C4C=CC4=C6CC(C)(C)CCC6(CO)C(O)CC45C)C3(C)C)C(O)C2O)C(O)C(O)C1O (centres undefined) , I found its LC retention time recorded as 6.29

Looking up C=C(CCC=C(C)C)C1CCC2(C)C1C(O)CC1C3(C)CCC(O)C(C)(C)C3C(OC3OC(CO)C(O)C(O)C3OC3OC(C)C(O)C(O)C3O)CC12C (centres undefined) , I found its LC retention time recorded as 7.57

Looking up O=C1c2c(O)cc(O)cc2OC(c2ccc(O)c(O)c2)C1O (centres undefined) , I found its LC retention time recorded as 4.27

Looking up COc1ccc(C2CC(=O)c3c(O)cc(OC4OC(CO)C(O)C(O)C4OC4OC(C)C(O)C(O)C4O)cc3O2)cc1 (centres undefined) , I found its LC retention time recorded as 5.42

Looking up C1CCC(C23CC(CC4CCCNC42)C2CCCCN2C3)NC1 (centres undefined) , I found its LC retention time recorded as 2.24

Looking up CCCCC(=O)OC1C(CO)OC(OC2(CO)OC(CO)C(OC(C)=O)C2O)C(OC(=O)CCCC)C1OC(=O)CCCC (centres undefined) , I found its LC retention time recorded as 8.56
